The values you see were collected from ChEMBL document CHEMBL4007500.

target: Mu-type opioid receptor (Homo sapiens); assay: Agonist activity at human recombinant MOR expressed in CHO cells assessed as calcium mobilization by Fluo-4 AM based fluorescence analysis
Sequence (P35372 whole entry): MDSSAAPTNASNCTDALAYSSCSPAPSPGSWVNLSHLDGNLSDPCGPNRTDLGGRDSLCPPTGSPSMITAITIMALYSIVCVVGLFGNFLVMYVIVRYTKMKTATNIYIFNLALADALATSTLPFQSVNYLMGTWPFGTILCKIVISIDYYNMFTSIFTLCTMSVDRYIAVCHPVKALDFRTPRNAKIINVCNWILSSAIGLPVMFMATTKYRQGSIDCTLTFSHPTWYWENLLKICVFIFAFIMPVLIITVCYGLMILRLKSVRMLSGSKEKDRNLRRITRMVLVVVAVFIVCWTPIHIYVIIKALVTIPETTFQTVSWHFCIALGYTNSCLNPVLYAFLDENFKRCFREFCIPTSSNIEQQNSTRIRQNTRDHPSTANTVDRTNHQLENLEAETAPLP
pEC50: −log10 of the molar value.
Assay Endpoint: pEC50

>>> quantitative_readout("CN[C@@H](Cc1ccc(O)cc1)C(=O)N[C@@H]1CCCCNC(=O)C[C@@H](C(N)=O)NC(=O)[C@H](Cc2ccccc2)N(C)C(=O)[C@H](Cc2ccccc2)NC1=O")
7.99

* * *

target: Delta-type opioid receptor (Rattus norvegicus); assay: Displacement of [3H][Ile5,6]deltorphin-2 from DOR in Wistar rat brain homogenates after 180 mins by liquid scintillation counting analysis; settings: read-out: Ki
Sequence (P33533 whole entry): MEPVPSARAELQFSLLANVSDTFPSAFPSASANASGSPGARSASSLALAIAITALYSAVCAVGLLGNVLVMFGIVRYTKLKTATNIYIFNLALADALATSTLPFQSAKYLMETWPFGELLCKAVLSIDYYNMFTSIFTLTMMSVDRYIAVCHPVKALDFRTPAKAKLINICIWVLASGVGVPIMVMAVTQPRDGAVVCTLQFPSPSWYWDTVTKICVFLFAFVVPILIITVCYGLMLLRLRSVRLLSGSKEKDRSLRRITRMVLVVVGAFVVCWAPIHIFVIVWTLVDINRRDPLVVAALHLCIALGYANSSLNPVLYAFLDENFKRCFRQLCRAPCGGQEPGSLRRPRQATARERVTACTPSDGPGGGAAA
Assay Endpoint: Ki

>>> result("CN[C@@H](Cc1ccc(O)cc1)C(=O)N[C@@H]1CCCCNC(=O)C[C@@H](C(N)=O)NC(=O)[C@H](Cc2ccccc2)N(C)C(=O)[C@H](Cc2ccccc2)NC1=O")
"> 1000 nM"
>>> result("CN[C@@H](Cc1ccc(O)cc1)C(=O)N[C@@H]1CCCCNC(=O)C[C@@H](C(N)=O)NC(=O)CNC(=O)[C@H](Cc2ccccc2)N(C)C(=O)[C@H](Cc2ccccc2)N(C)C(=O)CNC1=O")
"> 1000 nM"
>>> result("CN[C@@H](Cc1ccc(O)cc1)C(=O)N[C@@H]1CCCCNC(=O)C[C@@H](C(N)=O)NC(=O)[C@H](Cc2ccccc2)N(C)C(=O)CNC(=O)[C@H](Cc2ccccc2)N(C)C1=O")
"> 1000 nM"

* * *

Below, each entry is listed alongside its reported Ki.
target: Kappa-type opioid receptor (Cavia porcellus); test: Displacement of [3H]nor-BNI from KOR in Dunkin Hartley guinea pig brain homogenates after 180 mins by liquid scintillation counting analysis; conditions: read-out: Ki
Sequence (P41144 whole entry): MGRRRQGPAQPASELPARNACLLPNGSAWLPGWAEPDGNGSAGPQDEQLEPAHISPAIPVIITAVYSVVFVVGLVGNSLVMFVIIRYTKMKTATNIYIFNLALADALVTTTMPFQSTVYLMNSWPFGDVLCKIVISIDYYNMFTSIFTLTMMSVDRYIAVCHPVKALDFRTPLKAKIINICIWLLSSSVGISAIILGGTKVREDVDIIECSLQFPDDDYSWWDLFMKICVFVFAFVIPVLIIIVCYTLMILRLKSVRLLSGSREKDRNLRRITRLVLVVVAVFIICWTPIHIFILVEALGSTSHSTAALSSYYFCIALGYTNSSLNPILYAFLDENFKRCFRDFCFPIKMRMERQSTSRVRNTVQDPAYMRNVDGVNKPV
Assay Endpoint: Ki

>>> result("CN[C@@H](Cc1ccc(O)cc1)C(=O)N[C@@H]1CCCCNC(=O)C[C@@H](C(N)=O)NC(=O)[C@H](Cc2ccccc2)N(C)C(=O)CNC(=O)[C@H](Cc2ccccc2)N(C)C1=O")
"519 nM"
>>> result("CN[C@@H](Cc1ccc(O)cc1)C(=O)N[C@@H]1CCCCNC(=O)C[C@@H](C(N)=O)NC(=O)CNC(=O)[C@H](Cc2ccccc2)N(C)C(=O)[C@H](Cc2ccccc2)N(C)C(=O)CNC1=O")
"> 1000 nM"
>>> result("CN[C@@H](Cc1ccc(O)cc1)C(=O)N[C@@H]1CCCCNC(=O)C[C@@H](C(N)=O)NC(=O)[C@H](Cc2ccccc2)N(C)C(=O)[C@H](Cc2ccccc2)NC1=O")
"> 1000 nM"

* * *

assay: Stability of compound in Wistar rat brain homogenate assessed as compound remaining at 0.5 mM after 90 mins by RP-HPLC analysis; type: ADME, tissue-based; conditions: read-out: Stability
# remaining at 1.5 h, 500 µM per entry
Assay Endpoint: remaining at 1.5 h, 500 µM (%)

>>> quantitative_readout("CN[C@@H](Cc1ccc(O)cc1)C(=O)N[C@@H]1CCCCNC(=O)C[C@@H](C(N)=O)NC(=O)[C@H](Cc2ccccc2)N(C)C(=O)[C@H](Cc2ccccc2)N(C)C1=O")
96.9
>>> quantitative_readout("CN[C@@H](Cc1ccc(O)cc1)C(=O)N[C@@H]1CCCCNC(=O)C[C@@H](C(N)=O)NC(=O)CNC(=O)[C@H](Cc2ccccc2)N(C)C(=O)[C@H](Cc2ccccc2)N(C)C(=O)CNC1=O")
97.4
>>> quantitative_readout("CN[C@@H](Cc1ccc(O)cc1)C(=O)N[C@@H]1CCCCNC(=O)C[C@@H](C(N)=O)NC(=O)[C@H](Cc2ccccc2)N(C)C(=O)[C@H](Cc2ccccc2)NC1=O")
97.2
>>> quantitative_readout("CN[C@@H](Cc1ccc(O)cc1)C(=O)N[C@@H]1CCCCNC(=O)C[C@@H](C(N)=O)NC(=O)[C@H](Cc2ccccc2)N(C)C(=O)CNC(=O)[C@H](Cc2ccccc2)N(C)C1=O")
97
